Tested on: SK-OV-3 ovarian
TEST_NAME: NCI-60 one-dose screen, 48 h (100 = growth as untreated, 0 = no growth, -100 = all killed)
SETUP_CONDITIONS: 10 µM
This is part of a sample that, as a whole, favours compounds with a hit. Of some 83,000 tested, about 20% had one in any assay. Activity calls are given as the source filed them. The calls were made as follows: active = growth percent below 10; inactive = the rest.
Reported growth values for the following compounds.

COMPOUND | growth
O=C1/C(=C/c2cccs2)CCC/C1=C\c1cccs1 | 101% (inactive)
Cc1cc(C#Cc2ccccc2)ccc1-n1c(/C=C/c2cc(O)ccc2O)nc2ccccc2c1=O | -49.3% (active)
C=CCNC(=S)NN | 98.4% (inactive)
Cn1c([N+](=O)[O-])cnc1/C=C1\Oc2ccc(Br)cc2C1=O | -7.97% (active)
CCCCCC(CCC)COC(=O)c1ccc(OC)cc1 (configuration not stated) | 101% (inactive)
CCc1c(C)[nH]c(=O)c(C(N)=O)c1C#N | 100% (inactive)
COc1ccc(Cn2cc3c(c2-c2cc(OC)c(OC)c(OC)c2)CCc2cnoc2-3)cc1N | 2.09% (active)
c1ccc(CNc2nc(Nc3ccc(-c4nc5ccccc5[nH]4)cc3)c3cn[nH]c3n2)cc1 | 10.8% (inactive)
COc1cc([C@@H]2c3cc4c(cc3[C@H](SC(=N)N)[C@H]3COC(=O)[C@H]23)OCO4)cc(OC)c1OC | -4.1% (active)
COc1cc(CSc2nc3ccc(C)cc3c(=O)n2Cc2ccccc2)cc(OC)c1OC | 23.9% (inactive)
Cc1ccc(C)c2c1sc1nc3n[nH]c(N)c3c(=N)n12 | 127% (inactive)
Oc1[nH]c2ccccc2c1/C=c1/cc2c(c(-c3ccc(C(F)(F)F)cc3)n1)=Nc1ccccc1-2 | 79% (inactive)
O=C(O)CCCN1C(=O)NC2(C1=O)c1ccccc1-c1ccccc12 | 103% (inactive)
COc1ccccc1Cn1cc2c(c1-c1ccccc1)CCc1cnoc1-2 | 19.1% (inactive)
COc1cc(N=C2C(=O)N(Cc3ccccc3)c3ccccc32)cc(OC)c1OC | 101% (inactive)
CCN(CC)CCn1c(=N)n(CC(O)c2ccc(Cl)c(Cl)c2)c2ccccc21 (configuration not stated) | 92.3% (inactive)
N#Cc1c2c([nH]c(=O)c1C(N)=O)CCCCC2 | 91.6% (inactive)

----------
Test system: OVCAR-5 ovarian
TEST_NAME: NCI-60 one-dose screen, 48 h
SETUP_CONDITIONS: 10 µM
About 83,000 compounds went through this panel and 20% of them were active in at least one assay; those are over-represented in the sample as a whole. Activity calls are given as the source filed them. How the source made its calls: active means growth percent below 10; inactive means the rest.
Classes used: YES for active, NO for inactive

COMPOUND | ASSIGNED_LABEL
Cc1ccc(C)c(S(=O)(=O)NC2c3ccccc3Oc3ccccc32)c1 | NO
CC(=O)Nc1nc(C)c(C(=O)NNC=O)s1 | NO
CCOc1nc(-c2ccccc2)cc2c(O)c(C(=O)N/N=C/c3ccc(OC)cc3)[nH]c(=O)c12 | NO
C/C=C\COc1cc(C)c(Cl)cc1Cl | NO
C=CCOc1ccc2c(c1)CC=C1[C@@H]2CC[C@]2(C)C(=O)/C(=N/O)C[C@@H]12 | NO
CCCN(CCC)CCCNC(=O)c1cc2c(-c3ccc(OC)c(OC)c3)nn(C)c2s1 | NO
COc1cccc(-c2nnc(COc3ccc(-c4nc5ccccc5[nH]4)cc3OC)o2)c1 | NO
COC(=O)[C@]12CC[C@@H](C)[C@H](C)[C@@H]1C1=CC[C@@H]3[C@@]4(C)C[C@@H](O)[C@H](O)[C@@](C)(CO)[C@@H]4[C@H](O)C[C@@]3(C)[C@]1(C)CC2 | YES
Cc1ccc(-n2c(-c3cc4c([nH]c5ccccc54)c(-c4cccc(O)c4)n3)n[nH]c2=S)cc1 | NO
O=C1/C(=C/c2ccc(O)cc2)CSc2ccc(Cl)cc21 | NO
COC1OC2COC(c3ccccc3)OC2C(=O)C1NC(=O)c1ccccc1 (stereo unspecified) | NO

Measured values drawn from PubChem BioAssay (NCI) for this set.
